# System: SK-MEL-2
# Test method notes: NCI tumour cell line growth inhibition, 48 h
Active and inactive are the calls of the source. Cut-off read from the data, not from the text of the source: active = GI50 up to about 1.1 µM and inactive = higher.
Test readout: GI50

Brc1sc(Br)c2c1[C@H](Br)C[C@@H]2Br :: 24.6 µM (inactive)

Continue with the next compound.
The compound identified as O=C1Nc2cccc(Cl)c2/C1=C\c1cccnc1 registered its GI50 at 11.1 µM (inactive)

* * *

# System: NCI-H226
# Test method notes: NCI tumour cell line growth inhibition, 48 h
The source made the active and inactive calls. Rule as the data show it: active = GI50 up to about 1.1 µM and inactive = higher.
Test readout: GI50

// worked examples, GI50 included
CCSc1ncnc2c(C3OC(CO)C(O)C3O)nsc12 (stereo unspecified) :: > 100 µM (inactive)
Cc1ccc(S(=O)(=O)N/N=C2/C3CCC(C3)C2c2ccccc2)cc1 (stereo unspecified) :: > 100 µM (inactive)
COC(=O)C12CCC(C(F)(F)C1=O)C2(C)C (stereo unspecified) :: > 100 µM (inactive)
O=S(=O)(OI(O)CC(F)(F)F)C(F)(F)F :: > 100 µM (inactive)
COC(=O)c1cc2c(cc1CC(Cc1ccc3c(c1)CCCC3)C(=O)OC)CCCC2 (stereo unspecified) :: 59.3 µM (inactive)
O=C1NC(=O)/C(=C/c2ccc(S(=O)(=O)N/N=C/c3ccccc3)cc2)N1 :: > 100 µM (inactive)
COc1cc2oc(=O)cc(C)c2c(OC)c1OC(C)=O :: > 100 µM (inactive)
COc1ccc(C(=O)c2[nH]c(Nc3ccc(Cl)cc3)c(C(=S)Nc3ccccc3)c2N)cc1 :: 47 µM (inactive)
O=C(CSCC(=O)N/N=C/c1cccs1)N/N=C/c1cccs1 :: 37.2 µM (inactive)
NC(=O)OCC1=C(COC(N)=O)C(=O)c2c(O)ccc(O)c2C1=O :: > 100 µM (inactive)

Please turn your attention to the following entry.
// field: GI50; key: COc1ccc(NC2=NCCO2)c2ccccc12 ; value = 3.03 µM (inactive)

* * *

# Tested on: RPMI-8226
# Test method notes: NCI tumour cell line growth inhibition, 48 h
The source made the active and inactive calls. No stated cut-off is given here; in the data, active = GI50 up to about 1.1 µM and inactive = higher.
Pick one: active, inactive

C=CC(=O)NCCSCCCOC1(C(=O)O)CC(O)C(NC(C)=O)C(C(O)C(O)CO)O1 (stereo not given) :: inactive

Exam item: Tell me the recorded outcome of this test for COC(=O)c1ccccc1/C=C1\Cc2c(C)cc(C)cc2C1=O .
Marked response: inactive

* * *

# Tested on: 786-0
# Test method notes: NCI tumour cell line growth inhibition, 48 h
Calls of active or inactive are those of the source. Cut-off read from the data, not from the text of the source: active = GI50 up to about 1.1 µM and inactive = higher.
Test readout: GI50

COc1ccn(CC(=O)c2cc3ccccc3[nH]2)c(=O)n1 :: > 100 µM (inactive)
C#CCCCC(=C)C[C@@H]1OC(=O)[C@H](C)[C@@H]1O :: > 100 µM (inactive)
C#CCOCn1cc(C)c(=O)[nH]c1=O :: > 100 µM (inactive)

The molecule identified as COc1ccc(/N=[N+](\[O-])c2ccc(OC)cc2)cc1 registered its GI50 at > 100 µM (inactive)

Record summary for COC(=O)c1cc2c(cc1CC(Cc1ccc3c(c1)CCCC3)C(=O)OC)CCCC2 (stereo not drawn) : reported GI50 = 45.4 µM (inactive)

* * *

# System: T47D
# Test method notes: NCI tumour cell line growth inhibition, 48 h
Activity calls are given as the source filed them. Rule as the data show it: active = GI50 up to about 1.1 µM and inactive = higher.
Response enum: Y (active), N (inactive)

Exam item: Which result was noted for this molecule in the test: O=S(=O)(c1ccc(Br)cc1)n1c2ccc(Br)cc2c2nc3ccccc3nc21
Marked response: N

Exam item: Can you look up the reported call for CC(=O)O[C@H]1C[C@H](O[C@H]2[C@@H](O)C[C@H](O[C@H]3[C@@H](O)C[C@H](O[C@H]4CC[C@@]5(C)[C@H](CC[C@@H]6[C@@H]5CC[C@]5(C)[C@@H](C7=CC(=O)OC7)CC[C@]65O)C4)O[C@@H]3C)O[C@@H]2C)O[C@H](C)[C@H]1O[C@@H]1O[C@H](CO)[C@@H](O)[C@H](O)[C@H]1O for me?
Marked response: Y

Exam item: // outcome(item) with item = Cc1ccc2c(c1)/C(=N/Nc1ccccc1[N+](=O)[O-])C(=O)N2
Marked response: N

Each recorded value in this set is attributed to ChEMBL document CHEMBL1201862.
